# test-system: PAR2 (HT-29 cells) (Homo sapiens)
# Construct: host or cells: HT-29
# experiment: Ca FLIPR TETRA assay, ANTAGONIST mode, activator 8 μM SLIGKV
# Assay type: cell-based
# test-parameters: HT-29 cells, activator 8 μM SLIGKV; maximal antagonist concentration per Method (A: 0.1, 1 or 2 μM; B: 50 μM)
pIC50: −log10 of the molar value.
endpoint: pIC50

compound=CC(C)(C)c1cc(-c2ccc(F)cc2)nc2cc(C(=O)N3CCNC(=O)C3(C)C)oc12 endpoint=pIC50 endpoint_result=8.12
compound=C[C@H]1CN(C(=O)c2cc3nc(-c4ccc(F)cc4)cc(C4(C)CC4)c3o2)CCN1C(=O)c1ccn[nH]1 endpoint=pIC50 endpoint_result=6.00
compound=CC1(c2cc(-c3ccc(F)cc3)nc3cc(C(=O)N4CCN(C(=O)C5(c6ccc(Cl)cc6)CC5)CC4(C)C)oc23)CC1 endpoint=pIC50 endpoint_result=7.28
compound=CC(C)c1cc(-c2ccc(F)cc2)nc2cc(C(=O)N3CCN(C(=O)c4nnc[nH]4)CC3(C)C)oc12 endpoint=pIC50 endpoint_result=8.14

a = CC(C)(C)c1cc(-c2ccc(F)cc2)nc2cc(C(=O)N3CCN(C(=O)C4(C(=O)O)CC4)CC3(C)C)oc12
b = CC(C)c1cc(-c2ccc(F)cc2)nc2cc(C(=O)N3CCN(C(=O)CC(C)(C)C)CC3(C)C)oc12
Query block: Determine, for a and b , which has the greater value of pIC50. Give the label under which the chosen entry appears.
Result block: b
(b: 8.85, a: 6.59)

a = CC1(c2cc(-c3ccc(F)cc3)nc3cc(C(=O)N4CCN(C(=O)[C@H](O)C5CCCCC5)CC4(C)C)oc23)CC1
b = Cc1cc(N2CCN(C(=O)c3cc4nc(-c5ccc(Cl)cc5)cc(C(C)(C)C)c4o3)C(C)(C)C2=O)[nH]n1
Query block: Determine, for a and b , which has the greater value of pIC50. Give the label under which the chosen entry appears.
Result block: a

1 = Cc1cc(C(=O)N2CCN(C(=O)c3cc4nc(-c5ccc(F)cc5)cc(C(C)C)c4o3)C(C)(C)C2)on1
2 = CC(C)c1cc(-c2ccc(F)cc2)nc2cc(C(=O)N3CCN(C(=O)[C@H](O)CC(C)(C)C)C[C@H]3C)oc12
Query block: Determine, for 1 and 2 , which has the greater value of pIC50. Give the label under which the chosen entry appears.
Result block: 1
(1: 8.70, 2: 7.21)

---

# test-system: PAR2 (HT-29 cells) (Homo sapiens, UniProt P55085)
# Construct: host or cells: HT-29
# Sequence (P55085 26-397): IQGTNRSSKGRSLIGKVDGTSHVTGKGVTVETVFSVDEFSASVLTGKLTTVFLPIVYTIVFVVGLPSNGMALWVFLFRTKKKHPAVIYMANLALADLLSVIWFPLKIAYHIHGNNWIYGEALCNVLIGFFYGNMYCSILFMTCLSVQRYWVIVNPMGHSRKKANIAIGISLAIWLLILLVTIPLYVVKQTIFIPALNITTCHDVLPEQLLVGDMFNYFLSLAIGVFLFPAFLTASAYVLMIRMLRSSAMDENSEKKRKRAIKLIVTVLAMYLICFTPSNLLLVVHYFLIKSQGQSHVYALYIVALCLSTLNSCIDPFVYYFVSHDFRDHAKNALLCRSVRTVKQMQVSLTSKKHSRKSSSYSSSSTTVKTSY
# experiment: Ca FLIPR TETRA assay, ANTAGONIST mode, activator 8 μM SLIGKV
# Assay type: cell-based
# test-parameters: HT-29 cells, activator 8 μM SLIGKV; maximal antagonist concentration per Method (A: 0.1, 1 or 2 μM; B: 50 μM)
pIC50: −log10 of the molar value.
endpoint: pIC50

Some solved cases for reference:
molecule=CC(C)c1cc(-c2ccc(F)cc2)nc2cc(C(=O)N3CCN(C(=O)C4(O)CC4)CC3(C)C)oc12 endpoint_result=7.77
molecule=CC(C)c1cc(-c2ccc(F)cc2)nc2cc(C(=O)N3CCN(C(=O)[C@H]4C[C@](O)(C(F)(F)F)C4)CC3(C)C)oc12 endpoint_result=9.22

P = Cc1cc(C(=O)N2CCN(C(=O)c3cc4nc(C5CCC(F)(F)CC5)cc(C(C)(C)C)c4o3)C(C)(C)C2=O)[nH]n1
Q = CC(C)c1cc(-c2ccc(F)cc2)nc2cc(C(=O)N3CCN(C(=O)[C@H](C)O)CC3(C)C)oc12
Query block: Hi! Which is lower in terms of pIC50, the first one P or the second one Q ? Give the label under which the chosen entry appears.
Result block: Q
